All values here come from patent US5003055A.

Enzyme inhibitory activity/cytotoxicity ratio (A)/(B) listing for selected compounds.
system_name: HIV reverse transcriptase (Human immunodeficiency virus type 1 group M subtype B, UniProt P04585)
assay_method_text: biochemical
conditions: ratio of IC50 HIV reverse transcriptase (A) to IC50 P-388 (B)
Counter-ions that a name gives are not always drawn.
endpoint_label: Enzyme inhibitory activity/cytotoxicity ratio (A)/(B)

compound	readout_value
CCCCCCOc1ccc(C(=O)OCC(=O)[C@]2(O)Cc3c(O)c4c(c(O)c3[C@@H](O[C@H]3C[C@H](N)[C@H](O)[C@H](C)O3)C2)C(=O)c2c(OC)cccc2C4=O)cc1OCCCCCC [NOVA-9]	7.8
CCCCC(=O)Oc1ccc(C(=O)OCC(=O)[C@]2(O)Cc3c(O)c4c(c(O)c3[C@@H](O[C@H]3C[C@H](N)[C@H](O)[C@H](C)O3)C2)C(=O)c2c(OC)cccc2C4=O)cc1OC(=O)CCCC [NOVA-12.HCl]	50
CCCCCCOc1ccc(C(=O)OCC(=O)[C@]2(O)Cc3c(O)c4c(c(O)c3[C@@H](O[C@H]3C[C@H](N)[C@H](O)[C@H](C)O3)C2)C(=O)c2c(OC)cccc2C4=O)cc1OCCCCCC [NOVA-9.HCl]	4.8
CCCCCCCCCCCOc1cc(C(=O)OCC(=O)[C@]2(O)Cc3c(O)c4c(c(O)c3[C@@H](O[C@H]3C[C@H](N)[C@H](O)[C@H](C)O3)C2)C(=O)c2c(OC)cccc2C4=O)ccc1CO	25
COc1ccc(C(=O)OCC(=O)[C@]2(O)Cc3c(O)c4c(c(O)c3[C@@H](O[C@H]3C[C@H](N)[C@H](O)[C@H](C)O3)C2)C(=O)c2c(OC)cccc2C4=O)cc1OC	58
CCCCCCCCCCCOCc1ccc(C(=O)OCC(=O)[C@]2(O)Cc3c(O)c4c(c(O)c3[C@@H](O[C@H]3C[C@H](N)[C@H](O)[C@H](C)O3)C2)C(=O)c2c(OC)cccc2C4=O)cc1OCCCCCCCCCCC [NOVA-3.HCl]	38
COc1cccc2c1C(=O)c1c(O)c3c(c(O)c1C2=O)C[C@@](O)(C(=O)COC(=O)c1ccc(CO)c(O)c1)C[C@@H]3O[C@H]1C[C@H](N)[C@H](O)[C@H](C)O1	370
CCCCCCCCCCCOc1ccc(C(=O)OCC(=O)[C@]2(O)Cc3c(O)c4c(c(O)c3[C@@H](O[C@H]3C[C@H](N)[C@H](O)[C@H](C)O3)C2)C(=O)c2c(OC)cccc2C4=O)cc1OCCCCCCCCCCC [NOVA-10.HCl]	8.9
COc1cccc2c1C(=O)c1c(O)c3c(c(O)c1C2=O)C[C@@](O)(C(=O)COC(=O)c1ccc2c(c1)OC(C)(C)OC2)C[C@@H]3O[C@H]1C[C@H](N)[C@H](O)[C@H](C)O1	121
